molecular target: human PCSK9 (Homo sapiens, UniProt Q8NBP7)
Sequence (Q8NBP7 31-692): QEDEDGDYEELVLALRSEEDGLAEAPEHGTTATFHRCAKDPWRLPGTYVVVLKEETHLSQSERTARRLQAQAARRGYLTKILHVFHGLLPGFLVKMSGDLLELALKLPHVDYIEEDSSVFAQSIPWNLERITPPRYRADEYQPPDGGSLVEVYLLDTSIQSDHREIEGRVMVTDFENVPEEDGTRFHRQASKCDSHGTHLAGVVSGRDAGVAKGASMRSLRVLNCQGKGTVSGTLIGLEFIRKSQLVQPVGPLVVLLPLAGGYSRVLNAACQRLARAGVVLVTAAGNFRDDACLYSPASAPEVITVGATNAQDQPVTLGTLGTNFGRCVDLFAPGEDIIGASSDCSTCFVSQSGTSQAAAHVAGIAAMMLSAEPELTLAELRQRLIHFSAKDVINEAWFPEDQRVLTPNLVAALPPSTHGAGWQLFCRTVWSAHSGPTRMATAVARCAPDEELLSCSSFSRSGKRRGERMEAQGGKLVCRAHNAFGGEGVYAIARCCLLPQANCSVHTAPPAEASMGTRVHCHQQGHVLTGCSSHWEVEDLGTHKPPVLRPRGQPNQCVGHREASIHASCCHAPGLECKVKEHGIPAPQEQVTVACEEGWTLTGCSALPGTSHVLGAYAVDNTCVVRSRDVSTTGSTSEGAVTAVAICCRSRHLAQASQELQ
pKd: −log10 of the molar value.
Rule: pKd of 7 or more gives class 1; anything lower gives class 0.

* COc1cccc2ncc(N[C@H]3CC[C@H](Nc4ccc(-n5ccccc5=O)cn4)C3)nc12 [Example 144] | class 0
* Cc1nc(N[C@H]2CC[C@H](Nc3cnc(OC(F)F)cn3)C2)ccc1-n1ccccc1=O [Example 97] | class 1
* Nc1ccc2ncc(N[C@H]3CC[C@H](Nc4ccc(-n5ccccc5=O)cn4)C3)nc2n1 [Example 146] | class 0
* Cc1nc(N[C@H]2CC[C@H](Nc3ccc(-n4ccccc4=O)cn3)C2)cnc1C#N [Example 1] | class 0
* COc1cccn(-c2ccc(N[C@H]3CC[C@H](Nc4cnc(OC(F)F)cn4)C3)nc2)c1=O [Example 94] | class 1
* Cc1cnc(N[C@H]2CC[C@H](Nc3ccc(-n4nc(C)ccc4=O)cn3)C2)cn1 [Example 231] | class 1
* O=c1ccc(-c2ccc(F)cc2)cn1-c1ccc(N[C@H]2CC[C@H](Nc3cnc(Cl)cn3)C2)nc1 [Example 32] | class 1
* O=c1ccc2ccccc2n1-c1ccc(N[C@H]2CC[C@H](Nc3cnc(Cl)cn3)C2)nc1 [Example 35] | class 1

* * *

Each entry below lists one item and its recorded IC50 value.
target: potassium ion channel hERG (human Ether-á-go-go-Related Gene) (Homo sapiens, UniProt Q12809); assay: Assay 5 - hERG assay (SyncroPatch 384PE patch clamp, CHO cells); conditions: geometric mean; CHO cells over-expressing hERG; read-out: Assay 5 (hERG Hu CHO IF EPh CR-Syncro) GMean IC50
Sequence (Q12809 whole entry): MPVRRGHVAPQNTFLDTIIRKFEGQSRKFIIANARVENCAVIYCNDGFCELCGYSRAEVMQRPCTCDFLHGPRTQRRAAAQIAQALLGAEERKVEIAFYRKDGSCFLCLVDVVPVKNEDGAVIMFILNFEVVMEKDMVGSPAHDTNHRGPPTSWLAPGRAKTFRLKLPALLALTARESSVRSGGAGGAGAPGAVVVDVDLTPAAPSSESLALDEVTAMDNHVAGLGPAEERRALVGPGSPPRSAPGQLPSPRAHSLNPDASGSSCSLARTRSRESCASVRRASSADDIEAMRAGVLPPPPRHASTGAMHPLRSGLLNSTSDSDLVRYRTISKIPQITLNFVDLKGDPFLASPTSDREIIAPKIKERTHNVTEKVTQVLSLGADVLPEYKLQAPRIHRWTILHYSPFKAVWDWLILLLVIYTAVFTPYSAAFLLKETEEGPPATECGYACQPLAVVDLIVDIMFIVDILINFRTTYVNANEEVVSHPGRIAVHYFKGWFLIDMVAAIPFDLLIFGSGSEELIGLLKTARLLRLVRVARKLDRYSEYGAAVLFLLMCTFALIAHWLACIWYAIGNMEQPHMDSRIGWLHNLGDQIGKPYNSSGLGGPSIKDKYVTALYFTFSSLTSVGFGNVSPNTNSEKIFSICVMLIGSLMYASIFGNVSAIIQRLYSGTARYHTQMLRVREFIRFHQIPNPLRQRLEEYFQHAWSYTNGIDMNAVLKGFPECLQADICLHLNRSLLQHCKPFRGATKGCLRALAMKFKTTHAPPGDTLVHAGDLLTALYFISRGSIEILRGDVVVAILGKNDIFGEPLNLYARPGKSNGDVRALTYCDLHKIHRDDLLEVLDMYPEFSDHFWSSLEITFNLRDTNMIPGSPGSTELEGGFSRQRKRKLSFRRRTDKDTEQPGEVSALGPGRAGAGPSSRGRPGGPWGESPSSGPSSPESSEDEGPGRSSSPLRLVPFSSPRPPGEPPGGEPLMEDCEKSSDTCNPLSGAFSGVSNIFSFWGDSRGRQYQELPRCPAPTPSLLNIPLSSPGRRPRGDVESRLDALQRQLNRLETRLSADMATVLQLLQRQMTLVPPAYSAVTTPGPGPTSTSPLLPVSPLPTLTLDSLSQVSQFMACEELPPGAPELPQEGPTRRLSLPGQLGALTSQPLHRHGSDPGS
Property Name: IC50 (µM)

* Cn1c(=O)n(-c2ccc(N[C@H]3CC[C@H](Nc4cnc(Cl)cn4)C3)nc2)c2ccccc21 [Example 27] | 6.35
* COc1ccc(=O)n(-c2ccc(N[C@H]3CC[C@H](Nc4cnc(OC(F)F)cn4)C3)nc2)c1 [Example 95] | 11.1
* N#Cc1ccc(=O)n(-c2ccc(N[C@H]3CC[C@H](Nc4cnc(C5CC5)cn4)C3)nc2)c1 [Example 110] | 25.3
* Cc1ncc(N[C@H]2CC[C@H](Nc3ccc(-n4c(=O)n(C)c5ccccc54)cn3)C2)nc1C [Example 11] | 20.2

* * *

A collection of molecules and their measured pIC50
target: potassium ion channel hERG (human Ether-á-go-go-Related Gene) (Homo sapiens, UniProt Q12809); test: Assay 5 - hERG assay (SyncroPatch 384PE patch clamp, CHO cells); conditions: geometric mean; CHO cells over-expressing hERG; read-out: Assay 5 (hERG Hu CHO IF EPh CR-Syncro) GMean IC50
pIC50: −log10 of the molar value.
Property Name: pIC50

* Cc1cnc(N[C@H]2CC[C@H](Nc3ccc(-n4cccc(OC(F)(F)F)c4=O)cn3)C2)cn1 [Example 148] | < 4.40
* Cc1cnc(N[C@H]2CC[C@H](Nc3ccc(-n4cc(Cl)ccc4=O)cn3)C2)cn1 [Example 43] | < 4.40
* COc1cccn(-c2ccc(N[C@H]3CC[C@H](Nc4cnc(Cl)cn4)C3)nc2)c1=O [Example 13] | 4.45
* Cn1c(=O)n(-c2ccc(N[C@H]3CC[C@H](Nc4cnc(OC(F)F)cn4)C3)nc2)c2ccccc21 [Example 82] | 5.26
* CNC(=O)c1cnc(N[C@H]2CC[C@H](Nc3ccc(-n4cccc(Cl)c4=O)cn3)C2)cn1 [Example 149] | < 4.40
* Cc1cnc(N[C@H]2CC[C@H](Nc3ccc(-n4ccccc4=O)cn3)C2)c(=O)[nH]1 [Example 253] | < 4.40
* Cc1cnc(N[C@H]2CC[C@H](Nc3ccc(-n4nc(C)ccc4=O)cn3)C2)cn1 [Example 231] | < 4.40
* COc1cnc(N[C@H]2CC[C@H](Nc3ccc(-n4ccccc4=O)cn3)C2)cn1 [Example 140] | < 4.40

* * *

biological target: potassium ion channel hERG (human Ether-á-go-go-Related Gene) (Homo sapiens); construct: expressed in transfected cells; host or cells: Chinese hamster ovary K1 (CHO); experiment: Assay 5 - hERG assay (SyncroPatch 384PE patch clamp, CHO cells); format: cell-based; details: geometric mean; CHO cells over-expressing hERG; read-out: Assay 5 (hERG Hu CHO IF EPh CR-Syncro) GMean IC50
pIC50: −log10 of the molar value.
Property Name: pIC50

- O=c1cccnn1-c1ccc(N[C@H]2CC[C@H](Nc3cnc(Cl)cn3)C2)nc1 [Example 25]: < 4.40
- C[C@@]12C[C@]1(C)C(=O)N(c1ccc(N[C@H]3CC[C@H](Nc4cnc(OC(F)F)cn4)C3)nc1)C2=O [Example 80]: < 4.40
- O=c1ccccn1-c1ccc(N[C@H]2CC[C@H](Nc3cnc(OC(F)F)cn3)C2)nc1 [Example 86]: 4.87
- Cc1ncc(N[C@H]2CC[C@H](Nc3ccc(N4C(=O)CN(C)C4=O)cn3)C2)nc1C [Example 22]: < 4.40
- Cc1cnc(N[C@H]2CC[C@H](Nc3ccc(-n4nccc(C#N)c4=O)cn3)C2)cn1 [Example 278]: < 4.40
- O=C(O)[C@@H]1CCC(=O)N1c1ccc(N[C@H]2CC[C@H](Nc3cnc(OC(F)F)cn3)C2)nc1 [Example 79]: < 4.40
- O=c1ccc(-c2ccc(F)cc2)cn1-c1ccc(N[C@H]2CC[C@H](Nc3cnc(Cl)cn3)C2)nc1 [Example 32]: 5.46
- Cc1nc(N[C@H]2CC[C@H](Nc3ccc(-n4ccccc4=O)cn3)C2)cnc1C#N [Example 1]: < 4.40

* * *

biological target: potassium ion channel hERG (human Ether-á-go-go-Related Gene) (Homo sapiens); test: Assay 5 - hERG assay (SyncroPatch 384PE patch clamp, CHO cells); details: geometric mean; CHO cells over-expressing hERG; read-out: Assay 5 (hERG Hu CHO IF EPh CR-Syncro) GMean IC50
Property Name: IC50

• COc1cccn(-c2ccc(N[C@H]3CC[C@H](Nc4cnc(C)cn4)C3)nc2)c1=O (relative stereo) [Example 172] = > 40.1 µM
• Cn1ncc2ncc(N[C@H]3CC[C@H](Nc4ccc(-n5ccccc5=O)cn4)C3)nc21 [Example 9] = > 40 µM
• COc1ccc(=O)n(-c2ccc(N[C@H]3CC[C@H](Nc4cnc(C)cn4)C3)nc2)c1 [Example 40] = 35.5 µM
• Cc1cncc(N[C@H]2CC[C@H](Nc3ccc(-n4ccccc4=O)cn3)C2)n1 [Example 141] = > 40 µM

* * *

target: PCSK9 (Homo sapiens, UniProt Q8NBP7, G670E/V474I); assay: biochemical
Sequence (Q8NBP7 with tags, fused parts or gaps V474I/G670E): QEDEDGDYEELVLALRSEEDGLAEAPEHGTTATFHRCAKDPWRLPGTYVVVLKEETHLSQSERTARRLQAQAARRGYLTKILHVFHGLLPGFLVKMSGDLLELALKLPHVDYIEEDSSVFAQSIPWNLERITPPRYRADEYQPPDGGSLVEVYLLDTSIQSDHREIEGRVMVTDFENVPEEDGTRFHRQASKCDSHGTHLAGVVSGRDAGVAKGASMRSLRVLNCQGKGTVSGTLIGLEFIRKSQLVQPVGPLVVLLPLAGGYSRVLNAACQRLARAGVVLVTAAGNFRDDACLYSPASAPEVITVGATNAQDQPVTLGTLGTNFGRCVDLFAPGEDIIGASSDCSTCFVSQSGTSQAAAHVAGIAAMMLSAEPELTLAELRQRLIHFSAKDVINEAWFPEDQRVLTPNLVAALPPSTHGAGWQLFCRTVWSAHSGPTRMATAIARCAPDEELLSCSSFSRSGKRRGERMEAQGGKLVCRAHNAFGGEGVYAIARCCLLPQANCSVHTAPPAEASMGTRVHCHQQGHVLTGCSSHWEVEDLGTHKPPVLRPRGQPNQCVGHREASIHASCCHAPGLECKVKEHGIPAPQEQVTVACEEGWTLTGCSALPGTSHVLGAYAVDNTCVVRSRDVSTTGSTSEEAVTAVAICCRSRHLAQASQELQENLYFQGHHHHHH
Property Name: IC50 (nM)

* O=c1ccccn1-c1ccc(N[C@H]2CC[C@H](Nc3cnc4ccc(Cl)cc4n3)C2)nc1 [Example 139] | 235
* Cc1cnc(N[C@H]2CC[C@H](Nc3ccc(-n4nccc(Cl)c4=O)cn3)C2)cn1 [Example 232] | 3.7
* Cc1cccn(-c2ccc(N[C@H]3CC[C@H](Nc4cnc(OC(F)F)cn4)C3)nc2)c1=O [Example 84] | 11
* Cc1cnc(N[C@H]2CC[C@H](Nc3ccc(-n4c(=O)ccc5ccccc54)cn3)C2)cn1 [Example 38] | 2.2
* Cc1cnc(N[C@H]2CC[C@H](Nc3ccc(-n4cc(-c5cnn(C)c5)ccc4=O)cn3)C2)cn1 [Example 206] | 22
* COc1cccn(-c2ccc(N[C@H]3CC[C@H](Nc4cnc(Cl)cn4)C3)nc2)c1=O [Example 13] | 4
* COc1ccnn(-c2ccc(N[C@H]3CC[C@H](Nc4cnc(C)cn4)C3)nc2)c1=O [Example 226] | 4
* O=c1ccc(-c2nnn[nH]2)cn1-c1ccc(N[C@H]2CC[C@H](Nc3cnc(OC(F)F)cn3)C2)nc1 [Example 178] | 10

* * *

Biological target: GSK3β (Glycogen synthase kinase-3 beta) (Homo sapiens, UniProt P49841)
Sequence (P49841 whole entry): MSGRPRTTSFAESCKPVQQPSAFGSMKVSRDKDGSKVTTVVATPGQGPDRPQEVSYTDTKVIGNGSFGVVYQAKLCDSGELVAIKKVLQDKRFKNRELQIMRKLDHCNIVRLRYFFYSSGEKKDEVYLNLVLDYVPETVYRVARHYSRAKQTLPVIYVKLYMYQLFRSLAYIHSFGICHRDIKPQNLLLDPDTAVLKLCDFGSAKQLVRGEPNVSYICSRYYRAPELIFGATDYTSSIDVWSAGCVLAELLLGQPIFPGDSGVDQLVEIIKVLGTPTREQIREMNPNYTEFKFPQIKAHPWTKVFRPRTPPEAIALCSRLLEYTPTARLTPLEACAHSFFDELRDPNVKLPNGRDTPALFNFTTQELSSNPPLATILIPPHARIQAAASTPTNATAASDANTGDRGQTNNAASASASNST
Experiment: Assay 6 - GSK3β assay (ThermoFisher Z-Lyte)
Type: biochemical
Settings: geometric mean; ATP Conc: 10 μM; read-out: Assay 6 (GSK3β FRET-Z-Lyte CR) GMean IC50 (μM) ATP Conc: 10
Protocol: Assay 6—GSK3β Assay (ThermoFisher Assay) This assay measures the activity of the compounds at GSK3β (Glycogen synthase kinase-3 beta). The test compounds were screened in 1% DMSO (final) in the well. For 10 point titrations, 3-fold serial dilutions are conducted from the starting concentration of 10 μM. Bar-coded Corning, low volume NBS, black 384-well plate • 1. 2.5 μL—4× Test Compound or 100 nL 100× plus 2.4 μL kinase buffer • 2. […] Read on fluorescence plate reader and analyse the data […]
IC50 reference
Property Name: IC50

- N#Cc1cnc(N[C@H]2CC[C@H](Nc3ccc(-n4ccccc4=O)cn3)C2)cn1: 0.713 µM
- Cc1cncc(N[C@H]2CC[C@H](Nc3ccc(-n4ccccc4=O)cn3)C2)n1: > 10 µM
- Cn1c(=O)n(-c2ccc(N[C@H]3CC[C@H](Nc4cnc(Cl)cn4)C3)nc2)c2ncccc21: > 10 µM
- COc1cccc2ncc(N[C@H]3CC[C@H](Nc4ccc(-n5ccccc5=O)cn4)C3)nc12: 2.34 µM
